Provide the recorded IC50 for the entries that follow.
Target: hCGRP receptor (CALCRL:RAMP1) (Homo sapiens, UniProt O60894+Q16602)
Construct: host or cells: GeneBLAzer CALCRL:RAMP1-CRE-bla Freestyle 293F
Sequence (Q16602 23-461): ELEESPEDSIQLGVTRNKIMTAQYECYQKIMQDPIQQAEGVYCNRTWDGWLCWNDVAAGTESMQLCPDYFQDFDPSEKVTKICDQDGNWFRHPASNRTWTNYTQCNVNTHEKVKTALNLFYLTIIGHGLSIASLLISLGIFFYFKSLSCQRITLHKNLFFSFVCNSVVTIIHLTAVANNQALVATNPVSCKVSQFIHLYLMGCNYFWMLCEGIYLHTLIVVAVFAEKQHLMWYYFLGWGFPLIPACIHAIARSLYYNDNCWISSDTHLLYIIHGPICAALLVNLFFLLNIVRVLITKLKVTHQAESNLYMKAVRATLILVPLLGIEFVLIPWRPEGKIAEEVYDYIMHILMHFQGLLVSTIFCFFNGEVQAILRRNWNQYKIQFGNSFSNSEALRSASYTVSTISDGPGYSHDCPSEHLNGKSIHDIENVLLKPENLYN
Sequence (O60894 27-148): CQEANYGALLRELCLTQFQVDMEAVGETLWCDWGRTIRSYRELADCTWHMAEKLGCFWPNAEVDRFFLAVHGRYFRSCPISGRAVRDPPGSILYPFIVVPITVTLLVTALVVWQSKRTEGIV
Assay: CGRP receptor antagonist activity measured by cAMP assay (HTRF)
Assay type: cell-based
Conditions: GeneBLAzer CALCRL:RAMP1-CRE-bla Freestyle 293F cells; agonist human α-CGRP; 30 minutes; read-out: hCGRP-R IC50 Ave
Numbered stars: 1 amine (or outer) side, 2 acyl side, 3 side chain; on linkers, the order of the positions; unused ones are H or OH. Bridge positions count the residues as written; N and C are the ends. Square brackets hold non-standard residues; d marks the D form. Peptide text beside a SMILES is read from it. * marks the point of attachment. X3 = NCc1ccccc1C[C@H](N[*:1])C(=O)[*:2]; Lys(Me2) = CN(C)CCCC[C@H](N)C(=O)O; 3Pal = N[C@@H](Cc1cccnc1)C(=O)O; Orn = NCCC[C@H](N)C(=O)O; X2 = Cc1n[nH]c(C(=O)*)n1; X6 = O=C(c1ccncn1)*
Hi, when you answer, please include the unit after the number. Thanks!

- CC(C)[C@@H]1NC(=O)[C@H](CC(=O)O)NC(=O)[C@H](CCCNC(=O)[C@@H](N)CCCCN(C)C)NC(=O)[C@@H](NC(=O)[C@H](Cc2ccc(O)cc2)NC(=O)[C@H](NC(=O)c2ccncn2)C(C)C)CSSC[C@@H](C(=O)N[C@@H](Cc2cccnc2)C(N)=O)NC(=O)[C@H](Cc2ccccc2)NC(=O)[C@@H]2CCCN2C(=O)CNC1=O [Compound 45] (X6-[dV]YC[Orn](Lys(Me2))DVGPFC[3Pal]-NH2; disulfide 3-10): 180 pM

Your task in this section: give IC50 for each listed record.
1. CC(C)[C@@H]1NC(=O)[C@H](CC(=O)O)NC(=O)[C@H](CCCNC(=N)N)NC(=O)[C@@H](NC(=O)[C@H](Cc2ccc(O)cc2)NC(=O)[C@H](NC(=O)c2ccncn2)C(C)C)CSSC[C@@H](C(=O)N[C@@H](Cc2cccnc2)C(N)=O)NC(=O)[C@H](Cc2ccccc2)NC(=O)[C@@H]2CCCN2C(=O)CNC1=O [Compound 16] (X6-[dV]YCRDVGPFC[3Pal]-NH2; disulfide 3-10)
2. Cc1n[nH]c(C(=O)N[C@@H](C(=O)N[C@@H](Cc2ccc(O)cc2)C(=O)N[C@H]2CSSC[C@@H](C(=O)N[C@@H](Cc3cccnc3)C(N)=O)NC(=O)[C@H](Cc3ccccc3CN)NC(=O)[C@@H]3CCCN3C(=O)CNC(=O)[C@H](C(C)C)NC(=O)[C@H](CC(=O)O)NC(=O)[C@H](CCCNC(=N)N)NC2=O)C(C)C)n1 [Compound 53] (X2-[dV]YCRDVGP[X3]C[3Pal]-NH2; disulfide 3-10)

70 pM
110 pM
